Values were extracted from the Human Domainome abundance scans (Beltran et al. 2025).

B1: Storkhead-box protein 2, residues 64 to 141; numbered along this chain, Q9P2F5 (parent)
chain: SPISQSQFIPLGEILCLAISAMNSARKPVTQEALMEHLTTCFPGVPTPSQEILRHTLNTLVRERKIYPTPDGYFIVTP

- Variants of: B1
- run_description: abundance fitness (aPCA) (normalised: wild type 0, dead -1); higher = more abundant; growth selection in yeast, the domain comes from the species named
- cond: Homo sapiens
Given measured abundance fitness, output T if it is greater than or equal to -0.06 and F if not.

Worked examples follow.
| alteration | label_class |
| --- | --- |
| L17T | T |
| L34W | F |
| K27A | F |
| P70N | T |
| I19T | F |

Req: Can H37E be said to have abundance fitness at or above -0.06?
Resp: F

Req: Same read-out for S4A ?
Resp: F

Req: // same read-out, input: E32K
Resp: T

Req: # iterate: S4Y
Resp: F

Req: Try this variant too: P43V
Resp: F

Req: Same question, E13C this time
Resp: F

Req: Then P2Y ?
Resp: T

Req: Same for P46T
Resp: T

Req: Now the same for I19G
Resp: F
